Values compiled from patent US20230312550A1.

pKd: −log10 of the molar value.
Reported pKd for target or system hFAP (M39-A757) (Homo sapiens (Human), UniProt Q12884), by entry.

MOLECULE: C[C@@H]1CN(c2ccc3nccc(C(=O)NCC(=O)N4CSC[C@H]4C#N)c3c2)C[C@H]1C (single isomer, unassigned)
SYSTEM TESTED: hFAP (M39-A757) (Homo sapiens (Human), UniProt Q12884)
Sequence (Q12884 39-757): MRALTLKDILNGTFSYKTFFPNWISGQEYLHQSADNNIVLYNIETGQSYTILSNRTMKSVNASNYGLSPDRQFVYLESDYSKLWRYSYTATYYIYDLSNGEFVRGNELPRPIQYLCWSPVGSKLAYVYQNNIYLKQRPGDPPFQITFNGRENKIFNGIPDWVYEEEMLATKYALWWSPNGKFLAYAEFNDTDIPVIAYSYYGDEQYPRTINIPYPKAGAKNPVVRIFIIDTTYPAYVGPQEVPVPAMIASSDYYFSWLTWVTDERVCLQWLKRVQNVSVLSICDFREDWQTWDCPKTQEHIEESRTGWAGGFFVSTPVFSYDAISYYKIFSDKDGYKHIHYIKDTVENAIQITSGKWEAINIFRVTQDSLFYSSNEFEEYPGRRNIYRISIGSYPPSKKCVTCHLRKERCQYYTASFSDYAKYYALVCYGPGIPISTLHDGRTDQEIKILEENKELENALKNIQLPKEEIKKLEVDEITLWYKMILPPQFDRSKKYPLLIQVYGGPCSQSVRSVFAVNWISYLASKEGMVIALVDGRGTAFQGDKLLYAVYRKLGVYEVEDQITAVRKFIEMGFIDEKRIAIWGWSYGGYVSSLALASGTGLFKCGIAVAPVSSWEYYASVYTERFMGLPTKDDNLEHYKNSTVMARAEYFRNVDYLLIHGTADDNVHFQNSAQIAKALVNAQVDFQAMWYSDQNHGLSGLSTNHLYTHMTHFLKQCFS
pKd: 10.36
--
MOLECULE: N#C[C@@H]1CSCN1C(=O)CNC(=O)c1c(F)cnc2ccc(N3CCOCC3)cc12
SYSTEM TESTED: hFAP (M39-A757) (Homo sapiens (Human), UniProt Q12884)
pKd: 8.02
--
MOLECULE: N#C[C@@H]1CSCN1C(=O)CNC(=O)c1ccnc2ccc(N3CCCC4(CC4)C3)cc12
SYSTEM TESTED: hFAP (M39-A757) (Homo sapiens (Human), UniProt Q12884)
pKd: 10.70
--
MOLECULE: Cc1ncccc1-c1ccc2nccc(C(=O)NCC(=O)N3CSC[C@H]3C#N)c2c1
SYSTEM TESTED: hFAP (M39-A757) (Homo sapiens (Human), UniProt Q12884)
pKd: 9.82

* * *

ASSAY PROCEDURE: Caco-2 cell permeability
EXPERIMENTAL PARAMETERS: human
Listed here are compounds together with their documented Papp.

COMPOUND: N#C[C@@H]1CSCN1C(=O)CNC(=O)c1ccnc2ccc(N3CCC4(CC3)COC4)cc12
Papp / nm/s: 7
//
COMPOUND: N#C[C@@H]1CSCN1C(=O)CNC(=O)c1c(F)cnc2ccc(N3CCOCC3)cc12
Papp / nm/s: 230
//
COMPOUND: C[C@H]1CCN(c2ccc3nccc(C(=O)NCC(=O)N4CSC[C@H]4C#N)c3c2)C1=O (single isomer, unassigned)
Papp / nm/s: 48
//
COMPOUND: N#C[C@@H]1CSCN1C(=O)CNC(=O)c1ccnc2ccc(N3CC4(COC4)C3)cc12
Papp / nm/s: 20
//
COMPOUND: CC1(C)COC12CN(c1ccc3nccc(C(=O)NCC(=O)N4CSC[C@H]4C#N)c3c1)C2
Papp / nm/s: 130
//
COMPOUND: CC1(C)Cc2c(-c3ccc4nccc(C(=O)NCC(=O)N5CSC[C@H]5C#N)c4c3)cnn2C1
Papp / nm/s: 140
//
COMPOUND: N#C[C@@H]1CSCN1C(=O)CNC(=O)c1ccnc2ccc(N3CCC(=O)CC3)cc12
Papp / nm/s: 20
//
COMPOUND: N#C[C@@H]1CSCN1C(=O)CNC(=O)c1ccnc2ccc(N3CC(CF)C3)cc12
Papp / nm/s: 200

* * *

ASSAY PROCEDURE: Metabolic stability in human liver microsomes (HLM)
EXPERIMENTAL PARAMETERS: human, HLM CLint, n = 1 or average of n = 2-3
Listed here are compounds together with their documented microsomal CLint.

COMPOUND: C[C@H]1N(c2ccc3nccc(C(=O)NCC(=O)N4CSC[C@H]4C#N)c3c2)CC1(F)F (mixture of isomers) [Example 159]
UNIT SYMBOL: µL/min/mg
RELATIONAL OPERATOR: =
microsomal CLint: 61
//
COMPOUND: N#C[C@@H]1CSCN1C(=O)CNC(=O)c1ccnc2ccc(N3CCOCC3)c(Cl)c12 [Example 101]
UNIT SYMBOL: µL/min/mg
RELATIONAL OPERATOR: =
microsomal CLint: 8.6
//
COMPOUND: N#C[C@@H]1CSCN1C(=O)CNC(=O)c1ccnc2ccc(N3CC(Cc4ccc(Cl)cc4)C3)cc12 [Example 187]
UNIT SYMBOL: µL/min/mg
RELATIONAL OPERATOR: =
microsomal CLint: 190
//
COMPOUND: COc1ccc(-c2ccc3nccc(C(=O)NCC(=O)N4CSC[C@H]4C#N)c3c2)cn1 [Example 178]
UNIT SYMBOL: µL/min/mg
RELATIONAL OPERATOR: =
microsomal CLint: 16
//
COMPOUND: N#C[C@@H]1CSCN1C(=O)CNC(=O)c1ccnc2c(Cl)cc(N3CCOCC3)cc12 [Example 180]
UNIT SYMBOL: µL/min/mg
RELATIONAL OPERATOR: =
microsomal CLint: 110
//
COMPOUND: CC1(C)CCCN(c2ccc3nccc(C(=O)NCC(=O)N4CSC[C@H]4C#N)c3c2)C1=O [Example 15]
UNIT SYMBOL: µL/min/mg
RELATIONAL OPERATOR: =
microsomal CLint: 43
//
COMPOUND: CC(F)(F)C1CN(c2ccc3nccc(C(=O)NCC(=O)N4CSC[C@H]4C#N)c3c2)C1 [Example 147]
UNIT SYMBOL: µL/min/mg
RELATIONAL OPERATOR: =
microsomal CLint: 17
//
COMPOUND: CC1(C)CCCN1c1ccc2nccc(C(=O)NCC(=O)N3CSC[C@H]3C#N)c2c1 [Example 57]
UNIT SYMBOL: µL/min/mg
RELATIONAL OPERATOR: >
microsomal CLint: 300
